- Test system: sorbitol levels in hESC-SCs
- measurement-description: Sorbitol measurement in hESC-SCs
- Assay type: cell-based, human
- assay-context: Homo sapiens; high glucose treated hESC-SCs; read-out: IC50 (dose-response in rescuing SC viability and in decreasing sorbitol levels)
pIC50: −log10 of the molar value.
measurement-kind: pIC50

# compound, result-value
records = [
    ("CC(NC(C)(C)C)C(=O)c1cccc(Cl)c1.Cl (stereo not shown) [BP, hydrochloride]", 6.58),
]
